The origin of these recorded values is patent US20160362487A1.

Target: T1, biotinylated hIL-33 protein (R&D systems, Cat #3625-IL/CF) (human, UniProt O95760 112-270, biotinylated (sites not given))
T1 construct: Same commercial protein as m21, biotin-labelled; also called biotin-hIL-33
T1 sequence (looked up): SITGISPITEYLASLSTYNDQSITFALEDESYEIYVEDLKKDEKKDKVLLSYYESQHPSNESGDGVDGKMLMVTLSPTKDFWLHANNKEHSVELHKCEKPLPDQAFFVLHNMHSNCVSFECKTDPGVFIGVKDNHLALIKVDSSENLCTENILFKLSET
Assay: competition ELISA, 30 pM biotin-hIL-33 on coated hST2-hFc
# note: exactly 70% is not below, so it is Condition not met; use Condition met for % Maximum blocking strictly under it

binder	assigned.category
H4H9640P (antibody, human IgG4, V domains shown, Human IgG4 Fc (H4H)) VH: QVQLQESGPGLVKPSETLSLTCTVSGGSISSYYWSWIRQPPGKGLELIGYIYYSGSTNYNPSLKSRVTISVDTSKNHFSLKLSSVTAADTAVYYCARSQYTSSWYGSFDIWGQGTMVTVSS VL: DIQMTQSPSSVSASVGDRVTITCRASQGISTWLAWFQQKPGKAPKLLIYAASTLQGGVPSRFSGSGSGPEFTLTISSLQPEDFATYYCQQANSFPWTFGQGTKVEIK	Condition not met
H4H9671P (antibody, human IgG4, V domains shown, Human IgG4 Fc (H4H)) VH: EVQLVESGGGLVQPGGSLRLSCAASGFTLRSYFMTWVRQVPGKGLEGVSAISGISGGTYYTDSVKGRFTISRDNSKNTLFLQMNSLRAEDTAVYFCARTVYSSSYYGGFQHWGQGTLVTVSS VL: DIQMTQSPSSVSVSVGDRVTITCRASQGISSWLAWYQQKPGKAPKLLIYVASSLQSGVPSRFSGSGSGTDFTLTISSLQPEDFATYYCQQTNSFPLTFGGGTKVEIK	Condition met
H1M9568N (antibody, mouse IgG1, V domains shown, Human variable domains, mouse IgG1 Fc (H1M)) VH: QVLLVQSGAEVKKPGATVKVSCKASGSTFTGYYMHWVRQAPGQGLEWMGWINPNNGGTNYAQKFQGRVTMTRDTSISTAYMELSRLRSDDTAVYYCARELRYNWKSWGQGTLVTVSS VL: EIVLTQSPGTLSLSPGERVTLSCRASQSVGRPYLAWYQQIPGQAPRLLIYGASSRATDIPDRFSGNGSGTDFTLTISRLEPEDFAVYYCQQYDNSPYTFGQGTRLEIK	Condition met

Next binder, please.
QUERY: Is % Maximum blocking of H4H9675P (antibody, human IgG4, V domains shown, Human IgG4 Fc (H4H)) VH: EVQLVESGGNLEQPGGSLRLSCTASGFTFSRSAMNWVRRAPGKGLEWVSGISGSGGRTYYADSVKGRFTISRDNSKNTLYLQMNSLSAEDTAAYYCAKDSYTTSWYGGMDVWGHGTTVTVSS VL: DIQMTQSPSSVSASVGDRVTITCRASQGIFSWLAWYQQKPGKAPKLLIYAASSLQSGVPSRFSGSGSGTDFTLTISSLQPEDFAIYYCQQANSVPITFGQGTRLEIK strictly below 70%?
RESULT: Condition met
